Quick reference for Βobs [95% CI] (proportion increase in maximal efficacy of the antibiotic) among some compounds
tested on: S. Typhimurium; assay: Checkerboard growth assays with antibiotics in LPM 5.5 (FICI and MuSyC analyses); type: cell-based; conditions: MuSyC fit; Erythromycin

A selection of reference data follows.
Query block: Return Βobs [95% CI] (proportion increase in maximal efficacy of the antibiotic) for the following compound: OC(COc1ccc(Cl)c(Cl)c1)CN1CCC(Nc2nccc(C(F)(F)F)n2)CC1 (stereo not shown)
Result block: 0.01 [-0.01,0.01]

Query block: Indicate the recorded Βobs [95% CI] (proportion increase in maximal efficacy of the antibiotic) value for this compound: NC1CCN(CC(O)COc2cccc(C(F)(F)F)c2)CC1 (stereo not shown)
Result block: 0.06 [0.05,0.07]

Query block: Respond only with Βobs [95% CI] (proportion increase in maximal efficacy of the antibiotic) recorded for NC1CCN(CC(O)COc2ccc(Cl)c(Cl)c2)C1 (stereo not shown)
Result block: 0.04 [0.04,0.07]

***
Query block: Give the measured Βobs [95% CI] (proportion increase in maximal efficacy of the antibiotic) for NC1CCN(CC(O)COc2ccc(Cl)cc2)CC1 (stereo not shown)
Result block: 0.04 [0.03,0.04]
